target: unphosphorylated-BTK kinase domain (UP-BTK), GST-tagged human BTK (389-659aa) (Homo sapiens (Human)); test: BTK kinase Lanthascreen binding assay; conditions: Lanthascreen tracer competition, 60 minutes incubation; pIC50 = negative log of the IC50 in molar
Sequence (Q06187 389-659): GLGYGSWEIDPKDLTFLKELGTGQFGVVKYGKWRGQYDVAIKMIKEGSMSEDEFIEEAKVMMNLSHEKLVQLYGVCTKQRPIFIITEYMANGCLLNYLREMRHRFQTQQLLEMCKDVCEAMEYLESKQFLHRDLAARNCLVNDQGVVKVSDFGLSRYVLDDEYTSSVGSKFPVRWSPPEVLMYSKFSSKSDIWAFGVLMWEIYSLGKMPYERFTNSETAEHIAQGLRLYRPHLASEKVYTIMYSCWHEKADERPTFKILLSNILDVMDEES
Recorded measurements of BTK_I_binding pIC50, one per entry
quantity kind: BTK_I_binding pIC50

In [3]: df
Out[3]:
                                    compound        quantity_kind  observed_value
 0  Cc1cc(Oc2ccccc2)ccc1N1C(=O)Nc2c(NC(=O)C3CCCN(C(=O)/C(C#N)=C/C4CC4)C3)sc3nccc1c23 (stereo not shown) [Example 801]  BTK_I_binding pIC50             6.2
 1  Cc1cc(Oc2ccccc2)ccc1N1C(=O)Nc2c(C(=O)N[C@@H]3CCCN(C(=O)/C(C#N)=C/C4CC4)C3)sc3nccc1c23 [Example 850]  BTK_I_binding pIC50             7.6
 2  Cc1cc(Oc2ccccc2)ccc1N1C(=O)Nc2c(C(=O)N[C@@H]3CCN(C(=O)/C(C#N)=C/C(C)(C)C)C3)sc3nccc1c23 [Example 868]  BTK_I_binding pIC50             7.3
 3  C=CC(=O)N1CCC[C@@H](NC(=O)c2sc3nccc4c3c2NC(=O)N4c2ccc(Oc3cccnc3C)cc2C)C1 [Example 773]  BTK_I_binding pIC50             7.4
 4  C=CC(=O)N1CC[C@@H](O)[C@H](NC(=O)c2sc3nccc4c3c2NC(=O)N4c2ccc(Oc3ccccc3)cc2)C1 [Example 655]  BTK_I_binding pIC50             8.0
 5  C=CC(=O)N1C[C@@H](O)[C@@H](NC(=O)c2sc3nccc4c3c2NC(=O)N4c2ccc(OC(C)C)cc2C)C1 [Example 614]  BTK_I_binding pIC50             6.1
 6  COc1ccccc1Oc1ccc(N2C(=O)Nc3c(C(=O)NC4CCCN(C(=O)/C(C#N)=C/C5CC5)C4)sc4nccc2c34)c(C)c1 (stereo not shown) [Example 856]  BTK_I_binding pIC50             7.5
 7  O=C(N[C@@H]1CCCNC1)c1sc2nccc3c2c1NC(=O)N3c1ccc2c(c1)OC(F)(F)O2 [Example 636]  BTK_I_binding pIC50             5.7
 8  Cc1c(N2C(=O)Nc3c(C(=O)N[C@@H]4CCCNC4)sc4nccc2c34)ccnc1-c1ccccc1 [Example 733]  BTK_I_binding pIC50              <6
 9  O=C(NC1CCN(C(=O)/C=C/CO)CC1)c1sc2nccc3c2c1NC(=O)N3c1ccc(Oc2ccccc2)cc1 [Example 596]  BTK_I_binding pIC50             6.9
10  C=CC(=O)N1CC[C@@H](NC(=O)c2sc3nccc4c3c2NC(=O)N4c2ccc(Oc3ccccn3)cc2)C1 [Example 881]  BTK_I_binding pIC50             7.1
11  Cc1cc(Oc2cccc(COc3ccccc3C#N)c2)ccc1N1C(=O)Nc2c(C(=O)N[C@@H]3CCCN(C(=O)/C(C#N)=C/C4CC4)C3)sc3nccc1c23 [Example 861]  BTK_I_binding pIC50             7.3
12  Cc1nc(Oc2ccccc2)ccc1N1C(=O)Nc2c(C(=O)N[C@@H]3CCNC3)sc3nccc1c23 (single isomer, unassigned) [Example 728]  BTK_I_binding pIC50              <6
